Tested on: HCT-15 colon
assay info: NCI tumour cell line growth inhibition, 48 h
endpoint: TGI (µM)
Numbers only; they are read as µM.

Below are worked cases with known answers.
mol: c1ccc(CN2CCc3[nH]c4ccccc4c3C2)cc1
target entity: HCT-15 colon
TGI (µM): 62.6

mol: c1cc(-c2ccc(-c3nc4ccc(C5=NCCN5)cc4s3)s2)ccc1C1=NCCN1
target entity: HCT-15 colon
TGI (µM): 16.6

Q: Look at this molecule and give its reported TGI. "CN(C)CCCNc1ccc2nnn3c4ccc(OC(=O)c5ccccc5)cc4c(=O)c1c23"
Ans: 33.7

----------
This section presents compounds with their documented GI50 values.
System: SF-539 CNS
assay info: NCI tumour cell line growth inhibition, 48 h

mol: N#Cc1cnc2cc(OC[C@@H](O)CO)c(NC(=O)C3CCCC3)cc2c1Nc1ccc(OCc2cccc(F)c2)c(Cl)c1
GI50: 1150 nM

Q: Look at this compound and give its reported GI50. "NCCCCCNc1noc(Cc2c[nH]c3cc(Br)ccc23)n1"
Ans: 2150 nM

Q: Look at this compound and give its reported GI50. "CN(C)C(=O)OCc1nc2c(N3CCOCC3)nc(-c3ccccc3)nc2n1C"
Ans: 1400 nM

----------
This section presents compounds with their documented TGI values.
System: OVCAR-8 ovarian
assay info: NCI tumour cell line growth inhibition, 48 h

Below are worked cases with known answers.
compound: O=S(=O)(O)c1cc(S(=O)(=O)O)c2cc(N=Nc3c(O)ccc4ccccc34)ccc2c1
TGI: > 100 µM
//
compound: NCCCCCNc1noc(Cc2c[nH]c3cc(Br)ccc23)n1
TGI: 39.4 µM
//
compound: Clc1cc2ccccc2c2ccccc12
TGI: > 100 µM

Q: Look at this compound and give its reported TGI. "Cc1cc(C(=O)Nc2n[nH]c3ccccc23)n[nH]1"
Ans: > 100 µM

Q: Look at this compound and give its reported TGI. "CN(C)CCCNc1ccc2nnn3c4ccc(OC(=O)c5ccccc5)cc4c(=O)c1c23"
Ans: 39.8 µM

Q: Look at this compound and give its reported TGI. "C[P+](C)(C)C"
Ans: > 100 µM

Q: Look at this compound and give its reported TGI. "COc1ccc(C(=O)O[C@H]2CC[C@@]3(C)[C@@H]4CC[C@H]5[C@]6(O)C[C@H](O)[C@@]7(O)[C@@H](CN8C[C@@H](C)CC[C@H]8[C@@]7(C)O)[C@]6(O)C[C@@]53OC24O)cc1OC"
Ans: > 100 µM

Q: Look at this compound and give its reported TGI. "COC(=O)[C@H](Cc1ccccc1)NC(=O)N(CCC#N)CCCCN(CCC#N)C(=O)N[C@@H](Cc1ccccc1)C(=O)OC"
Ans: > 100 µM

Q: Look at this compound and give its reported TGI. "NC(=S)N=Nc1c(O)[nH]c2c(Cl)cc(Cl)cc12"
Ans: 40.8 µM

Q: Look at this compound and give its reported TGI. CCO/S(=N/S(=O)(=O)c1ccccc1)c1ccccc1[N+](=O)[O-] (stereo not given)
Ans: > 100 µM

Q: Look at this compound and give its reported TGI. "CO/N=C(/C)c1cccc(Nc2nc3ccc(Cl)cc3c3[nH]c4ccccc4c23)c1"
Ans: 23.1 µM

Q: Look at this compound and give its reported TGI. "C[C@@H]1[C@H](O)CC2=C(CC[C@@H](O)C2(C)C)[C@@]1(CO)CCc1ccoc1"
Ans: > 50 µM

Recorded values, source PubChem BioAssay (NCI).
